experiment: Pharmacokinetic study in male rats, single oral dose in 80% PEG400; settings: rat, in vivo, single oral dose 30 mg/kg in 80% PEG400, particle state Unmilled
PROPERTY NAME: half-life (h)
Give bare numbers, in h.

Enquiry: Supply half-life value. Item: Cc1c(CN(C)C(=O)/C=C/c2cnc3c(c2)CCC(=O)N3)oc2ccccc12.O=S(=O)(O)O [Sulfate]
Return: 5.7

* * *

assay: Solubility in cyclodextrins; type: physicochemical; conditions: 10% hydroxypropyl beta-cyclodextrin, aqueous with cosolvent or surfactant or cyclodextrin, thermodynamic from solid, cyclodextrin concentration 10%; shake-flask technique; read-out: Solubility in Hydroxypropyl Beta-Cyclodextrin
PROPERTY NAME: solubility
Don't forget the unit after the number, please.

Enquiry: Note down solubility recorded for Cc1c(CN(C)C(=O)/C=C/c2cnc3c(c2)CCC(=O)N3)oc2ccccc12 [Free base]
Return: 0.02 mg/mL
